From: patent US20260042731A1

Please provide measured pest or weed control at 560 g/ha for the entries that follow.
- Tested on: Chenopodium album (CHEAL), common lambsquarters
- measurement_protocol: Postemergence herbicide evaluation, growth of Chenopodium album (CHEAL)
- Assay type: in vivo
- experimental_setup: Chenopodium album, post-emergence, 504 h, read-out: Ave. CHEAL
Express the result in % but write the number alone.

Quick one: pest or weed control at 560 g/ha for O=C(COc1ccc(Cl)cc1Cl)OCCCOC(=O)COc1ccc(Cl)cc1Cl [Compound B10] ?
85

What do you have for O=C(COc1ccc(Cl)cc1Cl)OCCCCCOC(=O)COc1ccc(Cl)cc1Cl [Compound B8] ?
99.5

What do you have for O=C(COc1ccc(Cl)cc1Cl)n1cnc2ccccc21 [Compound D4] ?
93

What do you have for O=C(COc1ccc(Cl)cc1Cl)OCCOCCOCCOCCOC(=O)COc1ccc(Cl)cc1Cl [Compound B14] ?
99

What do you have for N#C/C(=N\OC(=O)COc1ccc(Cl)cc1Cl)c1ccccc1 [Compound A6] ?
73

What do you have for O=C(COc1ccc(Cl)cc1Cl)Nc1ccc(Cl)cc1 [Compound D6] ?
68

What do you have for O=C(COc1ccc(Cl)cc1Cl)OCOC(=O)c1ccccc1 [Compound E7] ?
70

What do you have for O=C(COc1ccc(Cl)cc1Cl)OCc1ccccc1 [Compound E4, Benzyl 2-(2,4-dichlorophenoxy)acetate] ?
75

What do you have for O=C(COc1ccc(Cl)cc1Cl)OCCCCCCOC(=O)COc1ccc(Cl)cc1Cl [Compound B12] ?
90

What do you have for O=C(COc1ccc(Cl)cc1Cl)OCCOC(=O)COc1ccc(Cl)cc1Cl [Compound B9] ?
92.5

What do you have for O=C(COc1ccc(Cl)cc1Cl)OCCOCCOCCOC(=O)COc1ccc(Cl)cc1Cl [Compound B13] ?
95

What do you have for O=C(COc1ccc(Cl)cc1Cl)Oc1ccc(Cl)cc1 [Compound E5] ?
94

====

Please provide measured pest or weed control at 560 g/ha for the entries that follow.
- Tested on: glyphosate resistant Conyza canadensis (L.) (ERICA), horseweed
- measurement_protocol: Postemergence herbicide evaluation, growth of Conyza canadensis (ERICA)
- Type: in vivo
- experimental_setup: Erigeron canadensis, post-emergence, 504 h, 560 g ae/ha, 21 DAA, percent reduction in plant size vs untreated control; read-out: Ave. ERICA
Returns: string containing the number followed by the unit.

Quick one: pest or weed control at 560 g/ha for `CCN(CC)OC(=O)COc1ccc(Cl)cc1Cl` ?
100%

What do you have for `Cc1cc(NC(=O)COc2ccc(Cl)cc2Cl)n(C)n1` ?
100%

What do you have for O=C(COc1ccc(Cl)cc1Cl)NOC1CCCCO1 (stereo not drawn) ?
100%

What do you have for `C=CCONC(=O)COc1ccc(Cl)cc1Cl` ?
97.5%

What do you have for `COc1ccc(CONC(=O)COc2ccc(Cl)cc2Cl)cc1` ?
96%

What do you have for `O=C(COc1ccc(Cl)cc1Cl)ONC(=O)C1CCCC1` ?
100%

What do you have for `O=C(COc1ccc(Cl)cc1Cl)NOCc1ccc(Cl)cc1` ?
99%

What do you have for `O=C(COc1ccc(Cl)cc1Cl)NOCCc1ccccc1` ?
98%

What do you have for `O=C(COc1ccc(Cl)cc1Cl)Nc1cccnc1` ?
99%
